Data credit: ChEMBL document CHEMBL1221304

experiment: Permeability by PAMPA assay; type: ADME; settings: read-out: permeability
PROPERTY_NAME: Papp (×10⁻⁶ cm/s)

[[record]]
molecule = "O=C(Nc1ccc(F)nc1)[C@@H]1CCC[C@H]1c1nc(Nc2cc(C3CC3)n[nH]2)c2cccn2n1 (stereo in doubt; (+)-25)"
property_name = "Papp"
quantitative_readout = 50.9

[[record]]
molecule = "O=C1CC[C@@H](c2nc(Nc3cc(C4CC4)[nH]n3)c3cccn3n2)N1C(=O)c1ccc(F)nc1"
property_name = "Papp"
quantitative_readout = 60

[[record]]
molecule = "C[C@@]1(C(=O)Nc2ccc(F)nc2)CCCN1c1nc(Nc2cc(C3CC3)n[nH]2)c2cccn2n1 [BMS-754807]"
property_name = "Papp"
quantitative_readout = 63.4

[[record]]
molecule = "O=C(c1ccc(F)nc1)N1CCC[C@H]1c1nc(Nc2cc(C3CC3)[nH]n2)c2cccn2n1"
property_name = "Papp"
quantitative_readout = 72.1

[[record]]
molecule = "O=C(Nc1ccc(F)nc1)[C@@H]1CCCN1c1nc(Nc2cc(C3CC3)[nH]n2)c2cccn2n1"
property_name = "Papp"
quantitative_readout = 77

[[record]]
molecule = "O=C(c1ccc(F)nc1)N1CCC[C@@H]1c1nc(Nc2cc(C3CC3)[nH]n2)c2cccn2n1"
property_name = "Papp"
quantitative_readout = 93.5

[[record]]
molecule = "O=C(Nc1ccc(F)nc1)C1=C(c2nc(Nc3cc(C4CC4)[nH]n3)c3cccn3n2)CCC1"
property_name = "Papp"
quantitative_readout = 82.2

[[record]]
molecule = "O=C(NCc1nc(Nc2cc(C3CC3)n[nH]2)c2cccn2n1)c1ccc(F)nc1"
property_name = "Papp"
quantitative_readout = 52.5

